Give MIC for every item shown.
test system: Staphylococcus aureus; assay: Antimicrobial activity against Staphylococcus aureus ATCC 25923 by broth microdilution method; format: functional
One number for each entry, in µM.

Below: 5 molecules and their reported MIC.
{"Smiles Representation": "O=C(O)c1cn(C2CC2)c2cc(N3CCN(Cn4nc(-c5cccc(O)c5)n(-c5cc(Cl)cc(Cl)c5)c4=S)CC3)c(F)cc2c1=O", "Experimental Target": "Staphylococcus aureus", "Unit Name": "µM", "Result Value": 0.72}
{"Smiles Representation": "O=C(O)c1cn(C2CC2)c2cc(N3CCN(Cn4nc(-c5cccc(Cl)c5)n(-c5ccc(Cl)cc5Cl)c4=S)CC3)c(F)cc2c1=O", "Experimental Target": "Staphylococcus aureus", "Unit Name": "µM", "Result Value": 1.4}
{"Smiles Representation": "O=C(O)c1cn(C2CC2)c2cc(N3CCN(Cn4ncn(-c5cccc(I)c5)c4=S)CC3)c(F)cc2c1=O", "Experimental Target": "Staphylococcus aureus", "Unit Name": "µM", "Result Value": 12.1}
{"Smiles Representation": "O=C(O)c1cn(C2CC2)c2cc(N3CCN(Cn4nc(-c5cccc(Cl)c5)n(-c5cc(Cl)cc(Cl)c5)c4=S)CC3)c(F)cc2c1=O", "Experimental Target": "Staphylococcus aureus", "Unit Name": "µM", "Result Value": 22.3}
{"Smiles Representation": "CCCCCCn1c(-c2cccc(Cl)c2)nn(CN2CCN(c3cc4c(cc3F)c(=O)c(C(=O)O)cn4C3CC3)CC2)c1=S", "Experimental Target": "Staphylococcus aureus", "Unit Name": "µM", "Result Value": 1.53}

Fill in MIC for each of the 2 molecules listed.
1. O=C(O)c1cn(C2CC2)c2cc(N3CCN(Cn4nc(-c5cccc(O)c5)n(-c5ccc(Cl)cc5Cl)c4=S)CC3)c(F)cc2c1=O
2. Cn1c(-c2cccc(Cl)c2)nn(CN2CCN(c3cc4c(cc3F)c(=O)c(C(=O)O)cn4C3CC3)CC2)c1=S

Reply:
1. 0.35
2. 0.86

###

system: Staphylococcus aureus; experiment: Antimicrobial activity against Staphylococcus aureus ATCC 25923 by broth microdilution method; assay type: functional
Endpoint Label: log10(MIC) (log10 of the value in µM)
Note the log scale: values are log10 of MIC expressed in µM.

Here is how some compounds turned out for log10(MIC).
{"Smiles Representation": "COc1ccc(-n2c(-c3cccc(Cl)c3)nn(CN3CCN(c4cc5c(cc4F)c(=O)c(C(=O)O)cn5C4CC4)CC3)c2=S)cc1", "Experimental Target": "Staphylococcus aureus", "log10(MIC)": 0.17}
{"Smiles Representation": "O=C(O)c1cn(C2CC2)c2cc(N3CCN(Cn4nc(-c5cccc(Cl)c5)n(-c5ccc(I)cc5)c4=S)CC3)c(F)cc2c1=O", "Experimental Target": "Staphylococcus aureus", "log10(MIC)": 0.71}
{"Smiles Representation": "CCCCn1c(-c2cccc(Cl)c2)nn(CN2CCN(c3cc4c(cc3F)c(=O)c(C(=O)O)cn4C3CC3)CC2)c1=S", "Experimental Target": "Staphylococcus aureus", "log10(MIC)": 0.50}

For each of the items listed, what is its log10(MIC)?
1. O=C(O)c1cn(C2CC2)c2cc(N3CCN(Cn4nc(-c5cccc(Cl)c5)n(-c5ccc(Br)cc5)c4=S)CC3)c(F)cc2c1=O
2. Cc1nn(CN2CCN(c3cc4c(cc3F)c(=O)c(C(=O)O)cn4C3CC3)CC2)c(=S)n1-c1cccc(I)c1
3. O=C(O)c1cn(C2CC2)c2cc(N3CCN(Cn4nc(-c5cccc(O)c5)n(-c5cccc([N+](=O)[O-])c5)c4=S)CC3)c(F)cc2c1=O
4. CCn1c(-c2cccc(Cl)c2)nn(CN2CCN(c3cc4c(cc3F)c(=O)c(C(=O)O)cn4C3CC3)CC2)c1=S

Reply:
1. 0.74
2. 1.37
3. -0.13
4. -0.08
